pEC50 for assorted compounds
# target desc: Progesterone receptor (Homo sapiens)
# Sequence (P06401 whole entry): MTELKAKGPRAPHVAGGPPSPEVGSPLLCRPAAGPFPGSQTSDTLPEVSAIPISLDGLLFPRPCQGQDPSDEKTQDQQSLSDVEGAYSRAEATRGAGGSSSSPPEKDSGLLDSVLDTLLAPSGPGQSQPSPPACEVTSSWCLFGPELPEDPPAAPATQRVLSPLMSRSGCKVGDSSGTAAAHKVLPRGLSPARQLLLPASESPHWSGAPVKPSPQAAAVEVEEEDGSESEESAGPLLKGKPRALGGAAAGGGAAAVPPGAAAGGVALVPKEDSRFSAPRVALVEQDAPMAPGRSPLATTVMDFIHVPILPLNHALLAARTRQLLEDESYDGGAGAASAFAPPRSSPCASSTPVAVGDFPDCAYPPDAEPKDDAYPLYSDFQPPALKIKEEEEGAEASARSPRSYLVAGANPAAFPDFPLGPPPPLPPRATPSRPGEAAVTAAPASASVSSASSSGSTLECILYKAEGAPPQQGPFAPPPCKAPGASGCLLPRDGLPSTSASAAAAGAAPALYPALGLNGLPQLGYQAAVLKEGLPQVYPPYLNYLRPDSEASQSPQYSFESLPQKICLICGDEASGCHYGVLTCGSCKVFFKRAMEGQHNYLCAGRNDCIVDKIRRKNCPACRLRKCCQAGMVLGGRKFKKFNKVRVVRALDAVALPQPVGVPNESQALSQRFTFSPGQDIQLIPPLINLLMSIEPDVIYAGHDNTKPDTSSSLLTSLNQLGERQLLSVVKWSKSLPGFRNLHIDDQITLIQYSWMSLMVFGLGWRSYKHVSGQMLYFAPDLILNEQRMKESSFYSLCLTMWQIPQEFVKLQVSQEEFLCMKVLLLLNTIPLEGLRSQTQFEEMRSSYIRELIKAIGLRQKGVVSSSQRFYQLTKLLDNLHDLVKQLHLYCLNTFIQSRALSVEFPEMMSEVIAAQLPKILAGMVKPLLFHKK
# assay protocol: Human progesterone receptor (hPR) agonist activity in T47D human breast cancer cell line
# Format: functional, cell-based
Expect pEC50 as a plain number equal to -log10 of the molar concentration.

The examples below pair each entry with its known result.
smiles | pEC50
CC1=CC(C)(C)Nc2ccc(-c3ccc([N+](=O)[O-])s3)cc21 | 5.99
CC1=CC(C)(C)Nc2ccc(-c3sc(C#N)cc3Br)cc21 | 6.15

From here, focus on the item given below.
For CC1=CC(C)(C)Nc2ccc(-c3cc(C#N)sc3C)cc21 the compound record lists pEC50 as 5.85
